Molecular target: T1, recombinant human heat shock cognate 71 kDa protein (Hsc70) (human, UniProt P11142 1-646, limits assumed)
T1 construct: also called rhHsc70; human Hsc70
T1 sequence (P11142 whole entry): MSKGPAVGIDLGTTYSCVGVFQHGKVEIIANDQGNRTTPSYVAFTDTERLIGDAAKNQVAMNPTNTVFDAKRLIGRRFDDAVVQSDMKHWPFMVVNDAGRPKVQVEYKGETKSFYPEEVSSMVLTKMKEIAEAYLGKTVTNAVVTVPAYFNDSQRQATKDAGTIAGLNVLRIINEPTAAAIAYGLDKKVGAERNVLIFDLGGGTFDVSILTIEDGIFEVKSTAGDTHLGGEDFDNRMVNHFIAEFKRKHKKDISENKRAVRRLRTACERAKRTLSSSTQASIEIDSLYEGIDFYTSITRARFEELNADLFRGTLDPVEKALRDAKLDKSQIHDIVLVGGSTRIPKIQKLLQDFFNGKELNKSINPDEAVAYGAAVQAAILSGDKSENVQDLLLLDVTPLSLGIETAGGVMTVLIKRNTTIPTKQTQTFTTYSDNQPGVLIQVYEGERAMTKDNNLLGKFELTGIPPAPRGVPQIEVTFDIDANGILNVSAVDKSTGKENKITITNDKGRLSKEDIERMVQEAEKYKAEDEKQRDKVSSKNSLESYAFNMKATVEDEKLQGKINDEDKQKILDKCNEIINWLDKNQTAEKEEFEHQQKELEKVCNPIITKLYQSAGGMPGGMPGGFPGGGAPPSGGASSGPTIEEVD
Experiment: SEC of peptide-Hsc70 mixture; peptide:Hsc70 molar ratio 0.5:1
measurement_label: Percent complexation with Hsc70

>  <binder>
FFRKQWLRLTW (Synthetic peptide) [PEP014]

>  <measurement_label>
Percent complexation with Hsc70

>  <observed_result>
54.4%

$$$$
>  <binder>
FFRKNWLRLLW (Synthetic peptide) [PEP009]

>  <measurement_label>
Percent complexation with Hsc70

>  <observed_result>
63.5%

$$$$
>  <binder>
FFRKFWLRLTW (Synthetic peptide) [PEP008]

>  <measurement_label>
Percent complexation with Hsc70

>  <observed_result>
38.3%

$$$$
